- Test Target: 20S proteasome (Homo sapiens) (UniProt P49721+P20618+P28074+P28062+P28065+P28072+P25786+P25787+P25788+P25789+P28066+P60900+O14818+Q8TAA3+P40306+A5LHX3+P49720+P28070+Q99436)
- Test Summary: Inhibition of human 20S proteasome trypsin-like activity using Ac-RLR-AMC as a fluorogenic substrate at 130 uM measured every 20 seconds for 10 mins by fluorescence based assay
- Type: protein-complex assay
Calls of active or inactive are those of the source. The rule behind the calls is not given here.
Value Type: inhibition

> print(dat)
                                     smiles     value
1  CC(=O)N[C@H]1Cc2ccc([N+](=O)[O-])c(c2)Oc2ccc(cc2)C[C@@H](C(=O)N[C@@H](CC(C)C)C(=O)[C@@]2(C)CO2)NC(=O)[C@H](CC(C)C)NC1=O  inactive
2  CC(=O)N[C@H]1Cc2ccc([N+](=O)[O-])c(c2)Oc2ccc(cc2)CC[C@@H](C(=O)N[C@@H](CC(C)C)C(=O)[C@@]2(C)CO2)NC(=O)[C@H](CC(C)C)NC1=O  inactive
3  CC(C)C[C@@H](C=O)NC(=O)[C@@H]1Cc2ccc(cc2)Oc2cc(ccc2[N+](=O)[O-])C[C@H](NC(=O)OCc2ccccc2)C(=O)N[C@@H](CC(C)C)C(=O)N1  inactive
